Target: T1, hAMY3R (human, UniProt P30988)
T1 sequence 1: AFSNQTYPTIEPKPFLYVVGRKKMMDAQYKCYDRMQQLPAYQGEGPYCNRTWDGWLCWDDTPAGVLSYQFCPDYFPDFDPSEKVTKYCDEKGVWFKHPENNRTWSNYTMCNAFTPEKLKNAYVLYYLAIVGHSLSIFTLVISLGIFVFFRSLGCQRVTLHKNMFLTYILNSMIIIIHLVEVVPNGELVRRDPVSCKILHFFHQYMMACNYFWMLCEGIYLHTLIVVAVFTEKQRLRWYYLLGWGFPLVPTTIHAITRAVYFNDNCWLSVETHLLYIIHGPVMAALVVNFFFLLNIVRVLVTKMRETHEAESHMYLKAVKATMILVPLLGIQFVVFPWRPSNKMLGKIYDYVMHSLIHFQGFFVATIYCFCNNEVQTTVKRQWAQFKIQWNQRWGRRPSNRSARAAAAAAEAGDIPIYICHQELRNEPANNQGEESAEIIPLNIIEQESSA
T1 sequence 2: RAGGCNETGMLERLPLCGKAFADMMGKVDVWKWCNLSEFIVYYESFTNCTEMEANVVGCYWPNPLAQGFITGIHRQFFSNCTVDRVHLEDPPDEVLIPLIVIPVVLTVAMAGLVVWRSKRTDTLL
Test: cell-based or functional assay
Bridge positions count the residues as written; N and C are the ends. Square brackets hold non-standard residues; d marks the D form. Ends that are not written are not given here. Hyp = O=C(O)[C@@H]1C[C@@H](O)CN1; Cit = NC(=O)NCCC[C@H](N)C(=O)O
Would you mind telling me the reported hAMY3R EC50 (cAMP) of each entry?
The response must be a number in nM with no trailing unit.

Asked: Entry KCNTATCTVQ[Cit]LAHQIYQFTDKDKDNVAPATNVGSNG[Hyp]-NH2 (disulfide 2-7 (inferred); ends not checked) [SEQ ID NO: 252] has what hAMY3R EC50 (cAMP)?
Given back: 0.006

Asked: For the binder shown here, GCRFGTCTVQWLAHQIYQFTDKDKDNVAPRTNIGPNG[Hyp]-NH2 (disulfide 2-7 (inferred); ends not checked) [SEQ ID NO: 331] , give the reported hAMY3R EC50 (cAMP).
Given back: 0.006

Asked: hAMY3R EC50 (cAMP) for GCRTGTCTVQRLAHQIHQFTDKDKDNVAPRSKISPQT[Hyp]-NH2 (disulfide 2-7 (inferred); ends not checked) [SEQ ID NO: 228] ?
Given back: 0.205

Asked: I am curious: what hAMY3R EC50 (cAMP) value has been reported for GCRTGTCTVQRLAHQIYQFTDKDKDNVAPRTNIGPNGY [SEQ ID NO: 142] ?
Given back: 0.036

Asked: Given the binder GCRFGTCTVQRLAHQIYQFTDKDKDNVAPRSNVSPQG[Hyp]-NH2 (disulfide 2-7 (inferred); ends not checked) [SEQ ID NO: 145] , what is its reported hAMY3R EC50 (cAMP)?
Given back: 0.039
